test system: Saccharomyces cerevisiae; assay: protein stability index of tFT-peptide fusion (C-terminal peptide) (PSI (0-1 scale)); higher = more stable (slower turnover); conditions: genetic background: wild type; temperature: 30 C
Test readout: protein stability index
Respond with the number and no other words.

Example sequences with recorded protein stability index:
INSERT INTO results (input_sequence, numeric_readout) VALUES
  ('GIGYMFLNVWLV', 0.153),
  ('CEVGSKGCACRV', 0.649),
  ('RKKYPLMINGKR', 0.711),
  ('GLGGSKKGEQRL', 0.674);

Exam item: Any idea what its protein stability index is? The sequence is `VFWISRLYLASY`
Marked response: 0.456

Exam item: # protein stability index lookup, item `LMFPLPLRSFPF`
Marked response: 0.693

Exam item: Quick one: protein stability index for `ATKAKKGTMSHE` ?
Marked response: 0.652

Exam item: Query (sequence): `PLVFSTSLCVSE` ; field requested: protein stability index
Marked response: 0.666

Exam item: Give the measured protein stability index of `LAPLALPLPPPT` .
Marked response: 0.832

====

test system: Saccharomyces cerevisiae; assay: protein stability index of tFT-peptide fusion (C-terminal peptide) (PSI (0-1 scale)); higher = more stable (slower turnover); settings: genetic background: das1 deletion; temperature: 30 C
Items are presented alongside their recorded protein stability index.
API doc: respond with a numeric literal and nothing else, no unit.

Solved cases below.
INSERT INTO assay_data (input_sequence, numeric_readout) VALUES
  ('LLSVDGWRTDQL [QRI7 C-terminal 12 aa]', 0.721),
  ('FVDDNTPLEHVC [YDL086W C-terminal 12 aa]', 0.706),
  ('CSPVLFSLLNIA [LCB3 C-terminal 12 aa]', 0.699);

# input for lookup
Exam item: What value of protein stability index on Saccharomyces cerevisiae does GKKLVQEAFRIV [YPL039W C-terminal 12 aa] have?
Marked response: 0.715

====

test system: Saccharomyces cerevisiae; assay: protein stability index of tFT-peptide fusion (C-terminal peptide) (PSI (0-1 scale)); higher = more stable (slower turnover); conditions: genetic background: cdc53-1; temperature: 37 C
Parameter: protein stability index. Scope: all listed entries.

Below are worked cases with known answers.
INSERT INTO results (input_sequence, system_under_test, result) VALUES
  ('WLWFVGCLAAPL', 'Saccharomyces cerevisiae', 0.662),
  ('AAVQVCVLLLLL', 'Saccharomyces cerevisiae', 0.476),
  ('SFIFFVSCFFIF', 'Saccharomyces cerevisiae', 0.378),
  ('SMGVLITYLVQV', 'Saccharomyces cerevisiae', 0.461),
  ('CGGLFDVALGVG', 'Saccharomyces cerevisiae', 0.51);

Exam item: Please look up its protein stability index: `AFVVPLFLCCCG`
Marked response: 0.165

Exam item: I would be grateful if you could share the reported protein stability index for `VLYWTGTLFVSL` .
Marked response: 0.355

Exam item: GET /values?readout=protein stability index&item= `PWWDALLRARVC`
Marked response: 0.6

Exam item: Please report the recorded protein stability index for `TWGGGRVSLGGG` .
Marked response: 0.405

Exam item: Which protein stability index reading was recorded for the sequence `FLLYRFSLVGCF` ?
Marked response: 0.108

Exam item: Which protein stability index is listed for `PHPPRPPCPPIL` ?
Marked response: 0.736

Exam item: Please give the measured protein stability index for this sequence: `FMVYRIHSSAVM`
Marked response: 0.172

Exam item: Quick check: protein stability index of `GEGISCLLRRLT` ?
Marked response: 0.709

Exam item: Using the record for `PFVATRVSCFLT` , report its protein stability index.
Marked response: 0.704
